- Target system: human KDR protein in HEK-293 cells (Homo sapiens (Human), UniProt P35968)
- Sequence (P35968 20-1356): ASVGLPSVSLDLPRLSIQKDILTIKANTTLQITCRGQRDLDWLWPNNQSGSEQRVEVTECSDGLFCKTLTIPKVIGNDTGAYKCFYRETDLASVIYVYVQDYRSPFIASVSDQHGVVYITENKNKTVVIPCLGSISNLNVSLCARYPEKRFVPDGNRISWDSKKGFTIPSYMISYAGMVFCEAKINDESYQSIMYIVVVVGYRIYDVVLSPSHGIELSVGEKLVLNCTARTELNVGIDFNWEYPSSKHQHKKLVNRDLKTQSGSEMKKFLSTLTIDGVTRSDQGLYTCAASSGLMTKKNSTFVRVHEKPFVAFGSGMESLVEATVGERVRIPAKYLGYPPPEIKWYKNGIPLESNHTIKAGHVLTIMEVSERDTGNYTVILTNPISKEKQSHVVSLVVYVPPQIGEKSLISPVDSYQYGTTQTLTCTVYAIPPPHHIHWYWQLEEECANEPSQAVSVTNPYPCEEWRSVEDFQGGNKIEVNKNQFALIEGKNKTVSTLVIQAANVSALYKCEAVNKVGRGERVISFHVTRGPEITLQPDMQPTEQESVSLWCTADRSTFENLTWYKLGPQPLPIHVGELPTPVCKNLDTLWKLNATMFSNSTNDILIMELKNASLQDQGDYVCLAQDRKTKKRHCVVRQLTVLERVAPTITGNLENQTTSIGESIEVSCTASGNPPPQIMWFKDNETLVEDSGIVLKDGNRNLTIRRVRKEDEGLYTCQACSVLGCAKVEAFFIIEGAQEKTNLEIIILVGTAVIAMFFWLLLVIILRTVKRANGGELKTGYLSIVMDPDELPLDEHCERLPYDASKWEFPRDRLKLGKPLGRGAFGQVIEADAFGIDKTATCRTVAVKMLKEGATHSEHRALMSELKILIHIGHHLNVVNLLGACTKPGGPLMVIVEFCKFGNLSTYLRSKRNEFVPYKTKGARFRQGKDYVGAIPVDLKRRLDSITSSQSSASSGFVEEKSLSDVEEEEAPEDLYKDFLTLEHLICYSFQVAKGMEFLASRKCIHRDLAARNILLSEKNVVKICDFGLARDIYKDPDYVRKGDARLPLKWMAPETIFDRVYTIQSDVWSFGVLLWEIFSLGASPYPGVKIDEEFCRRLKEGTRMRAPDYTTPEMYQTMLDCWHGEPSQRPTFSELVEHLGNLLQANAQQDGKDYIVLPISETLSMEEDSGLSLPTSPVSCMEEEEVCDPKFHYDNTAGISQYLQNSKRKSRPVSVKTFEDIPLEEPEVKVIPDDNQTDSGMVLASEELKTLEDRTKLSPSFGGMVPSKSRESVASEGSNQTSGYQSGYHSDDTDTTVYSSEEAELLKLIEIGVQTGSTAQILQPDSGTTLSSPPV
- Assay procedure: KDR Cell Assay (phospho-KDR in HEK-293 cells expressing inducible KDR)
- Format: cell-based
- Assay setup: pKDR Cell HEK 10% FBS IC50, HEK-293 cells expressing inducible KDR, VEGF stimulated, 10% FBS
Quantity name: IC50 (nM)

If you can, please state the reported IC50 value of "Cn1cc(-c2cc(-c3ccc(N4CCN(C(=O)C5(c6ccccc6)CC5)CC4)nc3)c3c(C#N)cnn3c2)cn1" .
270

Which value of IC50 has been reported for "Cn1cc(-c2cc(-c3ccc(N4CC[C@@H](C(=O)NCCC(F)(F)F)C4)nc3)c3c(C#N)cnn3c2)cn1" in the records?
2770

I. CC(C)O[C@H]1CCN(C(=O)N2CCN(c3ccc(-c4cc(-c5cnn(C)c5)cn5ncc(C#N)c45)cn3)CC2)C1
II. Cn1cc(-c2cc(-c3ccc(N4CCC(NC(=O)c5ccccc5)CC4)nc3)c3c(C#N)cnn3c2)cn1
III. Cn1cc(-c2cc(-c3ccc(N4CCN([C@@H]5CCC[C@H]5O)CC4)nc3)c3c(C#N)cnn3c2)cn1
IV. Cn1cc(-c2cc(-c3ccc(N4CCN(C(=O)[C@@H](O)Cc5ccccc5)CC4)nc3)c3c(C#N)cnn3c2)cn1
V. Cn1cc(-c2cc(-c3ccc(N4CCN(CC(O)c5ccc(Cl)cc5)CC4)nc3)c3c(C#N)cnn3c2)cn1 (centres unmarked)
Please order the records by their reported IC50, lowest number first. Reply: labels, ordered per the request.
II, V, IV, I, III
(II: 75.2 nM, V: 207 nM, IV: 328 nM, I: 531 nM, III: 991 nM)

a. CCC1(C(=O)NCC(C)(C)O)CCN(c2ccc(-c3cc(-c4cnn(C)c4)cn4ncc(C#N)c34)cn2)CC1
b. Cn1cc(-c2cc(-c3ccc(N4CCN(C(=O)CN(C(=O)OC(C)(C)C)C(C)(C)C)CC4)nc3)c3c(C#N)cnn3c2)cn1
c. Cn1cc(-c2cc(-c3ccc(N4CCC(C(=O)N5CCCC5)CC4)nc3)c3c(C#N)cnn3c2)cn1
hey, can you rank those compounds up there by IC50? biggest number first please Please respond by ranking the labels in the order requested.
c, a, b
